System: HT29 colon
Method description: NCI tumour cell line growth inhibition, 48 h
Observation type: TGI

Worked cases, TGI given:
CN(C)c1nncc2[nH]cnc12 :: > 100 µM
Cc1ccc(-n2[nH]nc(C#N)c2=O)cc1 :: > 100 µM

TGI for CCCCCCCCCCCCOP(=O)(O)OCC(N)C(=O)O (stereo not given) ?
> 100 µM

Cool, now `O=C(O)/C(=C/C=C/c1ccccc1)c1csc(-c2nc(/C(=C\C=C\c3ccccc3)C(=O)O)cs2)n1`
> 100 µM

Cool, now `CCn1cc(C(=O)O)c(=O)c2cc3c(cc21)S(=O)(=O)CC3`
> 100 µM

Cool, now `O=C(NP(=O)(N1CC1)N1CC1)c1cc(I)ccc1I`
> 100 µM

====

Tested on: DLD-1 colon
Method description: NCI tumour cell line growth inhibition, 48 h
Observation type: TGI (µM)
The answer is to be given in µM; state only the numeric part.

CN(C)CCNC(=O)c1cccc2c1nc(-c1ccccc1)c1ccccc12 :: 15.3

TGI for CCCCCCCCCCCC1CCCC(C)N1 (stereo not given) ?
83.4

Cool, now `Cc1c2cnccc2c(C)c2c1c1ccccc1n2CCCCCCNCc1ccccc1`
2.92

Cool, now `O=C(O)/C(=C/C=C/c1ccccc1)c1csc(-c2nc(/C(=C\C=C\c3ccccc3)C(=O)O)cs2)n1`
57.7

Cool, now `O=C(Cc1nc2ccccc2s1)Nc1cccc(C(F)(F)F)c1`
29.9

Cool, now `CCOC(=O)C(=Cc1ccc(Oc2ccccc2)cc1)C(=O)OCC`
5.21

Cool, now O=[N+]([O-])c1cccc(C2ON2C2CCCCC2)c1 (stereo not given)
29.9

====

In this section we review reported TGI values for a set of molecules.
System: UO-31 renal
Method description: NCI tumour cell line growth inhibition, 48 h

C/C(=C/C(=O)Nn1c(Cc2ccccc2)n[nH]c1=O)C(=O)O :: > 100 µM

Request: TGI, test system UO-31 renal, entry `N#CCCN(CCC#N)c1ccc(/C=C2\N=C(c3ccccc3)N(NC(N)=S)C2=O)cc1`
> 100 µM

Cool, now `C=C1CC/C=C(\C)C(=O)C[C@@H]2[C@@H]1CC2(C)C`
7.64 µM

Cool, now `NC(=O)c1cc(-c2ccc(F)cc2)cc(-c2ccncc2)c1N`
> 25 µM

Cool, now O=C(Cc1nccc2c1[nH]c1ccccc12)OC1C#CCSCC#C/C=C\1 (stereo not given)
> 100 µM

Cool, now CCCCCCCCCCCCOP(=O)(O)OCC(N)C(=O)O (stereo not given)
28.9 µM

====

System: SN12C renal
Method description: NCI tumour cell line growth inhibition, 48 h
Observation type: TGI

O=C1/C(=C/c2cccc(Br)c2)CSC/C1=C\c1cccc(Br)c1 :: 5.22 µM
O=C(/C=C/c1ccc(/C=C/C(=O)c2ccc(O)cc2)cc1)c1ccc(O)cc1 :: > 100 µM
c1cc(CNCCN2CCNCC2)ccn1 :: > 100 µM
Cc1cc(Cc2c(F)c(F)c(C(c3cc(C)no3)c3c(F)c(F)c(F)c(F)c3F)c(F)c2F)on1 (stereo not given) :: > 100 µM

TGI for CCC(=O)c1c(NOC2OC(COC(C)=O)C(OC(C)=O)C(OC(C)=O)C2OC(C)=O)nc(OC)n(C)c1=O (stereo not given) ?
> 100 µM

Origin of values: PubChem BioAssay (NCI)
